Test: Tissue pharmacokinetics of released TQ and its metabolites in liver, plasma and urine (LC-MS/MS)
Format: in vivo, BALB/c mice
Conditions: female, BALB/c, mouse, in vivo, po, 10 mg/kg
Measure: Cmax (ng/mL)
Write the number in ng/mL without appending the unit.

Incoming: Which Cmax value is on record for COc1cc(C)c2c(Oc3cccc(C(F)(F)F)c3)c(OC)cc(NC(C)CCCN)c2n1 (stereo not shown) [TQ, tafenoquine] ?
Outgoing: 380

---

Assay: Tissue pharmacokinetics of released TQ and its metabolites in liver, plasma and urine (LC-MS/MS)
Format: in vivo, BALB/c mice
Conditions: female, BALB/c, mouse, in vivo, po, 10 mg/kg
Measure: AUC
Hi, when you answer, please include the unit after the number. Thanks!

Incoming: Which AUC value is on record for COc1cc(C)c2c(Oc3cccc(C(F)(F)F)c3)c(OC)cc(NC(C)CCCN)c2n1 (stereo not shown) ?
Outgoing: 22400 ng·h/mL

---

Test: Tissue pharmacokinetics of released TQ and its metabolites in liver, plasma and urine (LC-MS/MS)
Format: in vivo, BALB/c mice
Conditions: female, BALB/c, mouse, in vivo, po, 10 mg/kg
Measure: Tmax (h)
Write the number in h without appending the unit.

Incoming: Which Tmax value is on record for COc1cc(C)c2c(Oc3cccc(C(F)(F)F)c3)c(OC)cc(NC(C)CCCN)c2n1 (stereo not shown) [TQ, tafenoquine] ?
Outgoing: 8

---

Assay: Tissue pharmacokinetics of released TQ and its metabolites in liver, plasma and urine (LC-MS/MS)
Type: in vivo, BALB/c mice
Conditions: female, BALB/c, mouse, in vivo, po, 10 mg/kg
Measure: Kp

Incoming: Which Kp value is on record for COc1cc(C)c2c(Oc3cccc(C(F)(F)F)c3)c(OC)cc(NC(C)CCCN)c2n1 (stereo not shown) [TQ, tafenoquine] ?
Outgoing: 62.8

---

Test: Hemotoxicity in humanized G6PD deficiency mouse model
Type: in vivo, human RBCs engrafted in NOD/SCID mice
Conditions: female, NOD/SCID (NOD.CB17-Prkdcscid/J), mouse, in vivo; curve fit of Fig. 4B; single dose; pSVCTQ SC, TQ oral; day 7; read-out: Dose resulting in 50% hemolysis (TD50)
Measure: TD50 at 7 days

Incoming: Which TD50 at 7 days value is on record for COc1cc(C)c2c(Oc3cccc(C(F)(F)F)c3)c(OC)cc(NC(C)CCCN)c2n1 (stereo not shown) ?
Outgoing: 5 mg/kg
